Listed next: entries and their corresponding progressively motile sperm.
test system: human spermatozoa; assay: progressively motile sperm, percent change vs DMSO (non-capacitating); higher = more of the measured sperm population than DMSO, for viability, fewer PI-positive (dead) cells than DMSO; extreme values may be limits of the assay; conditions: incubation time: 6h incubation, 9.99 µM
Where a name gives a salt, the structure may show the parent alone.

Molecule | progressively motile sperm
CNS(=O)(=O)c1ccccc1Nc1nc(Nc2ccc(C3CCN(C)CC3)cc2OC)ncc1Cl [Compound 19] | -90.5%
CNC(=O)c1ccccc1Nc1nc(Nc2ccc(N3CCOCC3)cc2OC)ncc1Cl [TAE226] | 25.7%
Cc1[nH]c(/C=C2\C(=O)Nc3ccc(S(=O)(=O)Cc4c(Cl)cccc4Cl)cc32)c(C)c1C(=O)N1CCC[C@@H]1CN1CCCC1 | 18.6%
O=C(c1cccs1)c1no[n+]([O-])c1C(=O)c1cccs1 | -50.4%
CCCCCCOC(=O)[C@]1(O)C[C@@H]2O[C@@]1(C)n1c3ccccc3c3c4c(c5c6ccccc6n2c5c31)C(=O)NC4 [KT 5720] | 29.8%
CCS(=O)(=O)Nc1ccc2c(c1)/C(=C(/Nc1ccc(CN3CCCCC3)cc1)c1ccccc1)C(=O)N2 [Hesperadin hydrochloride] | -44.4%

###

test system: human spermatozoa; assay: total motile sperm, percent change vs DMSO (non-capacitating); higher = more of the measured sperm population than DMSO, for viability, fewer PI-positive (dead) cells than DMSO; settings: incubation time: 10min incubation, 9.99 µM
Counter-ions that a name gives are not always drawn.
Returns T if the recorded total motile sperm is greater than or equal to -10%, and F otherwise.

Molecule | Target System | Class Assignment
C=C[C@@]1(C)CC(=O)[C@@]2(O)[C@](C)(O1)[C@@H](OC(C)=O)[C@@H](O)C1C(C)(C)CC[C@H](O)[C@@]12C (stereo partly specified) | human spermatozoa | T
NC(=O)Nc1cc(-c2cccc(F)c2)sc1C(=O)N[C@H]1CCCNC1 [AZD 7762 hydrochloride] | human spermatozoa | F
COc1cc2ncn(-c3cc(OCc4ccccc4C(F)(F)F)c(C(N)=O)s3)c2cc1OC | human spermatozoa | F
c1ccc2c(c1)SCc1c-2[nH]c2ccccc12 | human spermatozoa | F
CCOc1ccc(-c2nc(-c3cccc4c3CCC4NCCO)no2)cc1OCC (stereo unspecified) [CYM 5442 hydrchloride] | human spermatozoa | T
O=S(=O)(NCCNC/C=C/c1ccc(Br)cc1)c1cccc2cnccc12 [H 89 dihydrochloride] | human spermatozoa | T

###

test system: HepG2; test: HepG2 toxicity (resazurin), effect normalised to DMSO (DMSO = 0); higher = more features changed / larger toxic effect; conditions: incubation time: 70h incubation; 30 µM
Where a name gives a salt, the structure may show the parent alone.
HepG2 toxicity listing for selected molecules.

Molecule | HepG2 toxicity [%]
COc1cc(N2CCOCC2)ccc1Nc1ncc(F)c(Nc2ccccc2NS(C)(=O)=O)n1 | 14
CCCCC(CC)C/N=C(\N)N/C(N)=N/CCCCCC/N=C(\N)N/C(N)=N/CC(CC)CCCC (centres undefined) [Alexidine dihydrochloride] | 103
O=C(c1cccs1)c1no[n+]([O-])c1C(=O)c1cccs1 | 103
Nc1ncnc2c1c(-c1cccc(OCc3ccccc3)c1)cn2[C@H]1C[C@@H](CN2CCC2)C1 | 103
CC(C)[C@H]1c2ccc(F)cc2CC[C@@]1(CCN(C)CCCc1nc2ccccc2[nH]1)OC(=O)C1CC1 [NNC 55-0396 dihydrochloride] | 103
CC(C)Cn1cnc2c(N)nc3ccccc3c21 | -1.53
COc1cc(C(=O)N2CCC(N3CCN(C)CC3)CC2)ccc1Nc1ncc2c(n1)N(C)c1ccccc1C(=O)N2C | 56.2
OCCN(CCO)c1nc(N2CCCCC2)c2nc(N(CCO)CCO)nc(N3CCCCC3)c2n1 | 7.46
CC(C)c1ccc2c(c1)CC[C@H]1[C@](C)(CN)CCC[C@]21C [Leelamine hydrochloride] | 103

###

Let's look at some compounds and their measured HeLa toxicity: nuclei-count effect normalised.
system: HeLa; test: HeLa toxicity: nuclei-count effect normalised to DMSO (DMSO = 0); higher = more features changed / larger toxic effect; conditions: incubation time: 24h incubation; 29.9 µM
Where a name gives a salt, the structure may show the parent alone.
Parameter: HeLa toxicity: nuclei-count effect normalised (%)

Compound | Test Value
CCc1cc(Nc2nccc(-c3c(-c4ccc(OC)c(C(=O)Nc5c(F)cccc5F)c4)nc4ccccn34)n2)c(OC)cc1N1CCC(N2CCN(S(C)(=O)=O)CC2)CC1 | -3.87
CC(C)Cn1c(=O)n(C)c(=O)c2[nH]cnc21 [IBMX] | -2.27
Clc1ccc(C(OCCN2CCCCC2)c2ccccc2)cc1 (configuration not stated) [Cloperastine hydrochloride] | 19.6
CCCCC/C=C\C/C=C\C/C=C\C/C=C\CCCC(=O)NCCO [Anandamide] | 22.7
Nc1nonc1C(=O)c1cccc(OCc2nc3ccccc3[nH]2)c1 [ASI-8] | 1.8
CC(C)C(C(=O)OC(C#N)c1cccc(Oc2ccccc2)c1)c1ccc(Cl)cc1 (configuration not stated) [Fenvalerate] | 4.61
CCOc1ccccc1OCCN[C@H](C)Cc1ccc(OC)c(S(N)(=O)=O)c1 [Tamsulosin] | 2.87

###

tested on: human spermatozoa; assay: total motile sperm, percent change vs DMSO (non-capacitating); higher = more of the measured sperm population than DMSO, for viability, fewer PI-positive (dead) cells than DMSO; conditions: incubation time: 10min incubation, 9.99 µM
Where a name gives a salt, the structure may show the parent alone.
Measured total motile sperm values are reported for all entries that follow.

Compound | U | total motile sperm
O=C(N1CCCCC1)N1CCCCC1Cc1ccccc1 (stereo not given) | % | -0.235
Cc1cc2c(C(C)C)c(O)c(O)c(C=O)c2c(O)c1-c1c(C)cc2c(C(C)C)c(O)c(O)c(C=O)c2c1O | % | -1.73
c1cnc2c(c1)ccc1cccnc12 | % | -2.32
COc1cc(C)c2c(Oc3cccc(C(F)(F)F)c3)c(OC)cc(NC(C)CCCN)c2n1 (stereo not given) | % | -17.5
COC(=O)[C@]1(C)CC[C@]2(C)CC[C@]3(C)C4=CC=C5C(=CC(=O)C(O)=C5C)[C@]4(C)CC[C@@]3(C)[C@@H]2C1 | % | -50.2
CNC(=O)c1ccccc1Nc1nc(Nc2ccc(N3CCOCC3)cc2OC)ncc1Cl | % | 0.613
Nc1nonc1C(=O)c1cccc(OCc2nc3ccccc3[nH]2)c1 | % | 3.13
CC(C)(O)c1ccn2c(-c3ccc(F)c(-c4ccc(F)cc4C#N)c3)cnc2c1F | % | 1.87
CCCCC/C=C\C/C=C\C/C=C\C/C=C\CCCC(=O)NCCO [Anandamide] | % | 0.0733
O=C(O)c1ccc(/C=C2/SC(=S)N(c3cccc(C(F)(F)F)c3)C2=O)cc1 | % | -0.0195
Cc1sc2c(c1C)C(c1ccc(Cl)cc1)=N[C@@H](CC(=O)OC(C)(C)C)c1nnc(C)n1-2 | % | 4.25
CC(C)c1ccc2c(c1)CC[C@H]1[C@](C)(CN)CCC[C@]21C [Leelamine hydrochloride] | % | -0.495
CC(=O)N1CCC(C(=O)N(CCCN2CCN(Cc3ccc(F)cc3)CC2)c2ccc(C)c(Cl)c2)CC1 [B07 hydrochloride] | % | -3.45
CCOCc1nc2c(N)nc3ccccc3c2n1CC(C)(C)O | % | -0.764
Nc1ccc(-c2ccc3ncc4ccc(=O)n(-c5cccc(C(F)(F)F)c5)c4c3c2)cn1 | % | -0.268
C=CC[C@@H]1/C=C(\C)C[C@H](C)C[C@H](OC)[C@H]2O[C@@](O)(C(=O)C(=O)N3CCCC[C@H]3C(=O)O[C@H](/C(C)=C/[C@@H]3CC[C@@H](O)[C@H](OC)C3)[C@H](C)[C@@H](O)CC1=O)[C@H](C)C[C@@H]2OC | % | 3.53
O=C(O)c1cccnc1Nc1cccc(C(F)(F)F)c1 | % | 2.12
[O]=[V]([O-])([O-])[O-] [Sodium orthovanadate] | % | 2.91
CC(C)Cn1c(=O)n(C)c(=O)c2[nH]cnc21 | % | -1.18
Cc1ccc(S(=O)(=O)c2c(N)n(CC(O)c3ccc([N+](=O)[O-])cc3)c3nc4ccccc4nc23)cc1 (stereo not given) | % | 1.39
O=C(Nc1ccc([N+](=O)[O-])cc1Cl)c1cc(Cl)ccc1O [Niclosamide] | % | -2.96
N=C(N)Nc1nc(-c2ccc(Cl)cc2)cs1 [n-[4-(4-Chlorophenyl)-1,3-thiazol-2-yl]guanidine] | % | 0.678
CNS(=O)(=O)c1ccccc1Nc1nc(Nc2ccc(C3CCN(C)CC3)cc2OC)ncc1Cl | % | -56.4
CCCCC(CC)C/N=C(\N)N/C(N)=N/CCCCCC/N=C(\N)N/C(N)=N/CC(CC)CCCC (stereo not given) [Alexidine dihydrochloride] | % | -25.4
CC(C)C(C(=O)OC(C#N)c1cccc(Oc2ccccc2)c1)c1ccc(Cl)cc1 (stereo not given) [Fenvalerate] | % | -12.2
